// values below are reported MIC
- Tested on: Staphylococcus aureus
- test.details: Antibacterial activity against Staphylococcus aureus assessed as growth inhibition after 18 hrs by agar diffusion method
- Format: functional
Kindly answer with a numeric value in µg/mL, unit omitted.

C[C@H](CC[C@@H]1[C@@]2(C)CCCC(C)(C)[C@@H]2CC[C@@]1(C)O)CC(=O)O; 2340

Measured MIC (Staphylococcus aureus), entry "CC1=CC[C@H]2C(C)(C)CCC[C@]2(C)[C@H]1CC/C(C)=C\C(=O)O" : 10000

The compound "CC1=CC[C@H]2C(C)(C)CCC[C@]2(C)[C@H]1CC[C@H](C)CC(=O)O" on Staphylococcus aureus: MIC was 780

Reported MIC (Staphylococcus aureus) for entry CO/N=C(\C(=O)N[C@@H]1C(=O)N2C(C(=O)O)=C(COC(C)=O)CS[C@H]12)c1csc(N)n1 [CEFOTAXIME] is 130
